Assay: Stability test in solution (pH 1.2 and pH 6.5)
Type: physicochemical
Conditions: 20 mM phosphate buffer pH 6.5, 37° C., 1 hour
Result type: Compound's percent residue (%) pH 6.5

Given smiles	Compound's percent residue (%) pH 6.5
C[C@@H](OC(=O)C12CC3CC(CC(C3)C1)C2)OC(=O)[C@@]1(N)[C@H]2[C@@H](C[C@H]1OCc1ccc(C(F)(F)F)cc1)[C@]2(F)C(=O)O	94
COc1cc([C@@H](C)O[C@@H]2C[C@@H]3[C@H]([C@]2(N)C(=O)O[C@@H](C)OC(=O)C24CC5CC(CC(C5)C2)C4)[C@@]3(F)C(=O)O)ccc1F	99
N[C@]1(C(=O)OCOC(=O)C2CCCCC2)[C@H]2[C@@H](C[C@H]1OCc1ccc(F)cc1)[C@]2(F)C(=O)O	96
Cc1ccc(CO[C@@H]2C[C@@H]3[C@H]([C@]2(N)C(=O)O[C@@H](C)OC(=O)O[C@@H]2C[C@H](C)CC[C@H]2C(C)C)[C@@]3(F)C(=O)O)cc1	94
C[C@@H](OC(=O)C12CC3CC(CC(C3)C1)C2)OC(=O)[C@@]1(N)[C@H]2[C@@H](C[C@H]1OCc1ccc(F)cc1)[C@@H]2C(=O)O	94

###

Biological target: human metabotropic glutamate receptor mGluR2 (Homo sapiens (Human), UniProt Q14416)
Sequence (Q14416 19-872): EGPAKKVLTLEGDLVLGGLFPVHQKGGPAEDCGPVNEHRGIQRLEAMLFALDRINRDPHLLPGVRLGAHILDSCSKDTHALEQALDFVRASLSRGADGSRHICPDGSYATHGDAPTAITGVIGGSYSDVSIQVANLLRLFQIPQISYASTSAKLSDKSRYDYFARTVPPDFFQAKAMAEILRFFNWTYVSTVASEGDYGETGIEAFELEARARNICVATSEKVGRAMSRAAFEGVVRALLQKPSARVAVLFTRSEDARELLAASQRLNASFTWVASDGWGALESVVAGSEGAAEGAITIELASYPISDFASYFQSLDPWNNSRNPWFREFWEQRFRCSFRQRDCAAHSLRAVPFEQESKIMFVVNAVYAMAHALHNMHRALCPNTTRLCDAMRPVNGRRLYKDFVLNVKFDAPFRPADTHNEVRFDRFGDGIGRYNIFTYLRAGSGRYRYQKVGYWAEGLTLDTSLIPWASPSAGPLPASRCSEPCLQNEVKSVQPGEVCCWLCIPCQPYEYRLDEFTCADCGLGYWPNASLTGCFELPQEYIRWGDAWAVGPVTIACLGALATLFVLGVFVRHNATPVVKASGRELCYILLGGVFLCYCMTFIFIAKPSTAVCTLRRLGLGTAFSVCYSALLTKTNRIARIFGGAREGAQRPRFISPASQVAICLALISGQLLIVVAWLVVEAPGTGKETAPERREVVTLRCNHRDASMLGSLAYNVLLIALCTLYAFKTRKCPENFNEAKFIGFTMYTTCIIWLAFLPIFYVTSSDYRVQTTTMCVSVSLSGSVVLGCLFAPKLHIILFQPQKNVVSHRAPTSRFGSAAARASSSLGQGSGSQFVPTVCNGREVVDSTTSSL
Assay: [35S]GTPγS binding test, mGluR2
Details: inhibition of glutamate (20 μM)-stimulated [35S]GTPγS specific binding, CHO cell membranes
Method: Test 1 [^35S]GTPγS binding test CHO cells stably expressing human metabotropic glutamate receptors mGluR2 and mGluR3 were cultured at 37° C. under 5% CO2 using a Dulbecco's modified Eagle medium [1% proline, 1 mM sodium pyruvate, 1 mM succinic acid, 1 mM disodium succinate, 100 units/mL penicillin, 100 μg/mL streptomycin, 400 (mGluR2) or 300 (mGluR3) μg/mL hygromycin B, 2 mM L-glutamine (added just before use)] containing 10% dialyzed fetal bovine serum. […]
pIC50: −log10 of the molar value.
Result type: pIC50

Compound	pIC50
COc1cc([C@@H](C)O[C@@H]2C[C@@H]3[C@H]([C@]2(N)C(=O)O)[C@@]3(F)C(=O)O)ccc1F [Compound (II)-4]	8.28
N[C@]1(C(=O)O)[C@H]2[C@@H](C[C@H]1OC1CCCC1)[C@]2(F)C(=O)O [Compound (II)-9]	7.21
N[C@]1(C(=O)O)[C@H]2[C@@H](C[C@H]1OCc1ccc(Cl)nc1)[C@]2(F)C(=O)O [Compound (II)-10]	7.30
N[C@]1(C(=O)O)[C@H]2[C@@H](C[C@H]1OCc1ccc(F)c(F)c1)[C@]2(F)C(=O)O [Compound (II)-2]	7.73

[I] N[C@]1(C(=O)O)[C@H]2[C@@H](C[C@H]1OCc1cccc(F)c1)[C@]2(F)C(=O)O [Compound (II)-6]
[II] CC(C)CCO[C@@H]1C[C@@H]2[C@H]([C@]1(N)C(=O)O)[C@@]2(F)C(=O)O [Compound (II)-7]
query: Of I and II , which carries the smaller reported pIC50 figure? Mark your answer with the label of the selected entry.
result: II

###

Assay: Stability test in solution (pH 1.2 and pH 6.5)
Type: physicochemical
Conditions: hydrochloric acid solution pH 1.2, 37° C., 1 hour
Description: Test 2: Stability Test in Solution A test to determine the stability of Inventive Compounds (I-A) or (I) in a hydrochloric acid solution (pH 1.2) and 20 mM phosphate buffer (pH 6.5) was conducted in accordance with the following method. […]
Result type: Compound's percent residue (%) pH 1.2

Compound	Val
CC(OC(=O)O[C@H]1C(C)(C)[C@H]2CC[C@]1(C)C2)OC(=O)[C@@]1(N)[C@H]2[C@@H](C[C@H]1OCc1ccc(F)cc1)[C@]2(F)C(=O)O (stereo partly drawn)	101
CCCO[C@@H]1C[C@@H]2[C@H]([C@]1(N)C(=O)O[C@H](C)OC(=O)O[C@@H]1C[C@H](C)CC[C@H]1C(C)C)[C@@]2(F)C(=O)O	97
CCCO[C@@H]1C[C@@H]2[C@H]([C@]1(N)C(=O)OC(C)OC(=O)O[C@H]1C[C@@H](C)CC[C@@H]1C(C)C)[C@@]2(F)C(=O)O (stereo partly drawn)	104
CC(C)[C@@H]1CC[C@@H](C)C[C@H]1OC(=O)O[C@H](C)OC(=O)[C@@]1(N)[C@H]2[C@@H](C[C@H]1OCc1ccc(F)cc1)[C@@H]2C(=O)O	97
CC(C)[C@@H]1CC[C@@H](C)C[C@H]1OC(=O)O[C@H](C)OC(=O)[C@@]1(N)[C@H]2[C@@H](C[C@H]1OCc1ccc(F)c(F)c1)[C@]2(F)C(=O)O	97
N[C@]1(C(=O)OCOC(=O)c2ccccc2)[C@H]2[C@@H](C[C@H]1OCc1ccc(F)cc1)[C@]2(F)C(=O)O	100
